src = PubChem BioAssay

Measured z-score accompanies every entry in the list below.
Assay: modulators of S6 phosphorylation in cells, primary screen, cell-based, A549, cytoblot, luminescence, serum-stimulated (AID 1158);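 further: serum-stimulated A549 lung adenocarcinoma cells; signal is phosphorylated S6 detected by cytoblot immunostaining with HRP secondary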
Conditions: A549 phospho-S6 cytoblot, 5 h, higher = more signal
The reply should be a number, written without any unit.

- Compound: "O=C1NC(=O)C2C1C=CC(C(O)c1cc(C(F)(F)F)cc(C(F)(F)F)c1)N2Nc1ccc(Cl)cc1Cl (configuration not stated)"
  Value observed: -1.41

Exam item: Look at this compound and give its reported z-score. `C=C(CCCC)/C(=C/C[C@@H](OC(=O)c1ccncc1)c1cccc(OCCO)c1)c1cnc2ccccc2c1`
Marked response: 0.462

Exam item: Again, but for `CN(C)CCCCNC(=O)[C@H]1C[C@H]2C(=O)N[C@@H](CCCCN(C)C)C(=O)N2[C@H]1c1cccc(OCCO)c1`
Marked response: -0.518

Exam item: Again, but for `COC(=O)[C@@]1(Cc2ccccc2)[C@H]2c3cc(C(=O)N4CCCC4)n(C[C@H](O)CO)c3C[C@H]2CN1C(=O)c1ccccc1`
Marked response: -0.26

Exam item: Again, but for `O=C(N1CCCCC1)[C@@]1(Cc2ccccc2)COC(c2ccc(OCCCO)cc2)=N1`
Marked response: -0.666

Exam item: Again, but for CC(=O)n1cc(C(O)C2C=CC3C(=O)N(c4ccccc4)C(=O)C3N2Nc2ccccc2)c2ccccc21 (configuration not stated)
Marked response: 1.32

Exam item: Again, but for `CCOC(=O)C[C@H]1[C@H](OC(=O)c2ccc(-c3ccccc3)cc2)[C@@H](NC(=O)c2ccc3ccccc3n2)c2cc(OCCCO)ccc2N1C(=O)c1ccccc1`
Marked response: 0.893

----------
Test: E. coli growth modulation, two-sided OD650, primary screen, E. coli filamentation project, strain DRC41, 24 h (AID 1093);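 further: MC1000 strain lacking acrAB efflux and sulA so SOS filamentation is blocked; test concentration not given here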
Conditions: OD650, 24 h, higher = more signal, called active from +8 up or from −8 down
The recorded z-score of each item maps onto one of these classes: 0 = under -0.4, 1 = from -0.4 up to 0.6, 2 = 0.6 and over

Use these answered entries as a reference point.
- Molecule: "CCCCN1CC=CC23O[C@@H]4C=CCOC(=O)[C@@H]4[C@H]2C(=O)N(C(C)CO)[C@@H]3C1=O (stereo partly specified)"
  Category: 0
- Molecule: "COc1ccc([Si](C)(C)[C@H]2[C@H](CCn3cc([C@H](O)c4ccccc4)nn3)O[C@@]3(C(=O)N(Cc4ccc(N5CCOC5=O)cc4)c4ccccc43)[C@@H]2C)cc1"
  Category: 1
- Molecule: "CC(C)CN1C(=O)[C@@]2(c3ccc([N+](=O)[O-])cc3)CC(=O)N(CC34CC5CC(CC(C5)C3)C4)[C@@H]2c2ccc(CO)cc21"
  Category: 0

Here's the next entry for you.
Exam item: // bin(item) where item = `COc1cc(CO)cc(I)c1O[C@H]1C=C(C(=O)NCCO)C[C@@H](N(CC2CCCCC2)C(=O)c2ccc(C(F)(F)F)cc2)[C@@H]1O`
Marked response: 2

----------
System: Chordin-like protein 2 (CHRDL2)
Experiment: CHRDL2 small-molecule binders, primary screen, biochemical, small-molecule microarray, 635 nm fluorescence (AID 1126);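 further: printed compound slides probed with Chrdl2 protein at 4 µg/mL for 1 h at 4 C; score merges 667 nm emission intensity with signal to noise over three replicate slides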
Conditions: small-molecule microarray binding, fluorescence 635 nm; higher = more signal
Measured composite z-score accompanies every entry in the list below.
The reply should be a number, written without any unit.

- Compound: "C=C(/C=C/CNS(=O)(=O)c1ccc(C)cc1)[C@H](O)[C@H]1CCCN1S(=O)(=O)c1ccccc1[N+](=O)[O-]"
  Value observed: 0.547
- Compound: "C=CCOC(=O)[C@H]1[C@@H]2C(=O)O[C@@H](c3ccccc3)[C@@H](c3ccccc3)N2[C@@H](c2ccc(OCCOC(=O)[C@H]3C[C@H]4C(=O)N[C@@H](CCCC[N+](C)(C)C)C(=O)N4[C@H]3c3cccc(OCCO)c3)cc2)[C@]12C(=O)Nc1ccc(I)cc12"
  Value observed: 0.578
- Compound: "[N-]=[N+]=NCc1ccccc1C[C@@]1(C(N)=O)N=C(c2ccc(OCCCO)cc2)O[C@@H]1c1ccccc1CN=[N+]=[N-]"
  Value observed: -0.464

Exam item: Look at this compound and give its reported composite z-score. CC(CO)N1C(=O)[C@@H]2C3C(=O)OCCC/C=C\[C@H]3OC23C=CCN(Cn2nnc4ccccc42)C(=O)[C@@H]13 (stereo partly drawn)
Marked response: 0.034

Exam item: Again, but for `CCOC(=O)C[C@H]1[C@H](OC(=O)Cc2ccc3c(c2)OCO3)[C@@H](NC(=O)Cc2ccc(OC)cc2)c2cc(OCCCO)ccc2N1C(=O)c1ccccc1`
Marked response: -0.353

Exam item: Again, but for `NC(=O)NCC#Cc1ccc2c(c1)[C@]1(C(=O)N2)[C@H](C(=O)O)[C@H]2C(=O)O[C@H](c3ccccc3)[C@H](c3ccccc3)N2[C@@H]1c1ccccc1OCCO`
Marked response: 0.915

Exam item: Again, but for `COC(=O)[C@@]1(Cc2ccc(F)cc2)[C@H]2c3cc(C(=O)N4CCCC4)n(CCF)c3C[C@H]2CN1C(=O)c1ccccc1`
Marked response: 0.294

Exam item: Again, but for COc1ccc(C(O)C2C=CC3C(=O)N(Cc4ccccc4)C(=O)C3N2n2cnnc2)c2ccccc12 (stereo not drawn)
Marked response: -2.13

Exam item: Again, but for `COC(=O)[C@@]1(Cc2ccc(OC)cc2)[C@H]2c3cc(C(=O)N(C)C)n(Cc4ccccc4)c3C[C@H]2CN1C(=O)c1ccccc1`
Marked response: -0.393

Exam item: Again, but for COC1(C)CN(Cc2ccccc2Br)[C@H](/C=C/c2ccccc2)[C@H](Cc2ccccc2)O1 (stereo partly drawn)
Marked response: -0.77

Exam item: Again, but for `C=C(/C(=C/C[C@@H](OC(=O)c1ccncc1)c1ccc(OCCO)cc1)c1cc(C(=O)OC)ccc1OC)C(C)C`
Marked response: -0.0737

Exam item: Again, but for O=C1NC(=O)C2C1C=CC(C(O)c1ccc(Br)cc1)N2Nc1ccccn1 (stereo not drawn)
Marked response: 0.913

Exam item: Again, but for CN1C2C=C(CCCO)C(C3C(=O)N(C(N)=O)C(=O)C32)C1c1cccs1 (stereo not drawn)
Marked response: 1.51

----------
Molecular target: Homeobox protein Hox-A13 (Mus musculus) (UniProt Q62424)
Sequence (Q62424 whole entry, looked up): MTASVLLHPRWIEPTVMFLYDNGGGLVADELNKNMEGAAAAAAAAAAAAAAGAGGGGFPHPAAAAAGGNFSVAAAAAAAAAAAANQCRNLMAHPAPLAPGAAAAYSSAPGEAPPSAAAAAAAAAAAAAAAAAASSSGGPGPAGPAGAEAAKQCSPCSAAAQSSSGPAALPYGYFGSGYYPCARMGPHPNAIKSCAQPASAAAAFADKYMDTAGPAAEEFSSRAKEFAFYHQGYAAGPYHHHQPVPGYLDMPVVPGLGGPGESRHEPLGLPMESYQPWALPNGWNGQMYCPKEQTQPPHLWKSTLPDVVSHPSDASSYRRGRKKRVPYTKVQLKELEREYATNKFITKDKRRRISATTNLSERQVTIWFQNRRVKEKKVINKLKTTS
Experiment: inhibitors of HoxA13-DNA binding, primary screen, biochemical, fluorescence polarization, labeled oligonucleotide (AID 1185)
Conditions: 15 min, higher = more signal, called active from +8 up or from −8 down
Classify by measured z-score: yes if it is equal to or exceeds -4, no if it is smaller.

Use these answered entries as a reference point.
- Compound: "COc1ccccc1CN1C(=O)c2ccccc2[C@](Cc2ccccc2I)(C(=O)NC(C)C)[C@@H]1c1ccc(CO)cc1"
  Category: "yes"
- Compound: "O=C1O[C@@H](c2ccccc2)[C@@H](c2ccccc2)N2[C@@H](c3ccccc3OCCO)[C@]3(C(=O)Nc4ccc(C#CCCO)cc43)[C@@H](C(=O)Nc3nc4ccccc4s3)[C@H]12"
  Category: "yes"
- Compound: "NCCCCCCNC(=O)[C@@H]1C[C@@H]2C(=O)N3CCC[C@H]3C(=O)N2[C@@H]1c1ccc(O)cc1"
  Category: "yes"
- Compound: "C=CCOC(=O)[C@H]1[C@@H]2C(=O)O[C@@H](c3ccccc3)[C@@H](c3ccccc3)N2[C@@H](c2ccc(OCCOC(=O)[C@H]3C[C@H]4C(=O)N[C@@H](Cc5ccccc5)C(=O)N4[C@H]3c3cccc(OCCO)c3)cc2)[C@]12C(=O)Nc1ccc(I)cc12"
  Category: "yes"
- Compound: "C=CC1c2cc(O)c(OC)cc2CCN1Cc1sc2ccccc2c1Cl (configuration not stated)"
  Category: "yes"

Exam item: Dear colleague, could you confirm whether `CC(=O)NCCCC[C@@H]1NC(=O)[C@@H]2C[C@H](C(=O)O)[C@H](c3ccc(O)cc3)N2C1=O` has z-score at or above -4?
Marked response: yes

Exam item: Again, but for `[N-]=[N+]=NCc1ccccc1C[C@@]1(C(N)=O)N=C(c2ccc(OCCCO)cc2)O[C@@H]1c1ccccc1CN=[N+]=[N-]`
Marked response: yes

Exam item: Again, but for `COCCOC(=O)N1C(=O)[C@@]2(c3cc(C#CC4(O)CCCCCC4)ccc31)[C@H](c1ccccc1OCCO)N1[C@H](c3ccccc3)[C@H](c3ccccc3)OC(=O)[C@H]1[C@@H]2C(N)=O`
Marked response: yes

Exam item: Again, but for `[N-]=[N+]=Nc1ccccc1[C@H]1OC(c2ccc(OCCCO)cc2)=N[C@@]1(CCS(=O)(=O)c1ccccc1)C(=O)N1CCCCC1`
Marked response: yes

Exam item: Again, but for `COc1ccc([Si](C)(C)[C@@H]2[C@@H](CC(=O)N3CCC[C@H]3CO)O[C@]3(C(=O)N(Cc4ccc(N5C(=O)c6cccc7cccc5c67)cc4)c4ccccc43)[C@H]2C)cc1`
Marked response: yes

Exam item: Again, but for `CN1C(=O)[C@@]2(CCS(=O)(=O)c3ccccc3)N=C(c3ccc(OCCCO)cc3)O[C@H]2c2ccccc21`
Marked response: no

Exam item: Again, but for `O=C1O[C@@H](c2ccccc2)[C@@H](c2ccccc2)N2[C@@H](c3ccc(O)cc3)[C@]3(C(=O)Nc4ccc(C#CCCO)cc43)[C@@H](C(=O)NC[C@H](O)c3ccccc3)[C@H]12`
Marked response: no

Exam item: Again, but for COC1(C)CN(Cc2ccccc2Br)[C@H](/C=C/c2ccccc2)[C@H](Cc2ccccc2)O1 (some centres not stated)
Marked response: yes

Exam item: Again, but for `CC(C)NC(=O)[C@@]1(C)c2ccccc2C(=O)N(C(C)C)[C@H]1c1ccc(CO)cc1`
Marked response: yes

Exam item: Again, but for `Cc1c(NC(=O)/C(C#N)=C/C=C/c2ccc(N(C)C)cc2)c(=O)n(-c2ccccc2)n1C`
Marked response: no

Exam item: Again, but for `C=CCN1C(=O)[C@]2(CC=C)N=C(c3ccc(OCCCO)cc3)O[C@@H]2c2ccccc21`
Marked response: yes

Exam item: Again, but for C[C@@H](OCc1ccccc1)C1NC(=O)[C@@]23C(=O)N[C@@H](Cc4ccccc4)C2[C@H](C)[C@@]2(C)O[C@H]2C3/C=C/C/C=C\CNC(=O)CNC1=O (some centres not stated)
Marked response: no

Exam item: Again, but for CC(C)C(CO)N1C(=O)[C@]2(C)C3C(=O)OCCC/C=C\[C@H]3OC23C=CCN(c2ccc(Cl)cc2)C(=O)[C@@H]13 (some centres not stated)
Marked response: no

Exam item: Again, but for CC(C)c1ccc(NN2C(C(O)c3ccco3)C=CC3C(=O)N(c4ccccc4)C(=O)C32)cc1 (configuration not stated)
Marked response: yes

Exam item: Again, but for `C[C@]1(C(=O)NC2CC2)c2ccccc2C(=O)N(Cc2ccc(OC(F)(F)F)cc2)[C@H]1c1ccc(CO)cc1`
Marked response: yes

Exam item: Again, but for CCOc1cc(C(O)C2C=CC3C(=O)N(C)C(=O)C3N2N2CCCCC2)ccc1O (configuration not stated)
Marked response: no

Exam item: Again, but for `CC(C)(C)OC(=O)CC[C@@]1(C(=O)O)N=C(c2ccc(OCCCO)cc2)O[C@@H]1c1ccccc1CN=[N+]=[N-]`
Marked response: no

Exam item: Again, but for `COc1cc2c(cc1OC)CN(C(=O)[C@@H]1[C@H]3C(=O)O[C@H](c4ccccc4)[C@H](c4ccccc4)N3[C@H](c3ccccc3OCCO)[C@@]13C(=O)Nc1ccc(C#CC4(O)CCCCCC4)cc13)CC2`
Marked response: yes

Exam item: Again, but for `NCCCCCNC(=O)[C@@H]1C[C@@H]2C(=O)N[C@@H](CCCCN)C(=O)N2[C@@H]1c1cccc(OCCO)c1`
Marked response: yes

Exam item: Again, but for NC(=O)N1C(=O)C2C(C1=O)C1C=C(CCCO)C2C(c2cccs2)N1Cc1cc2c(cc1Br)OCO2 (configuration not stated)
Marked response: no

Exam item: Again, but for `C=CCN1C(=O)[C@@]2(O[C@@H](CCn3cc([C@H](O)c4ccccc4)nn3)[C@H]([Si](C)(C)c3ccc(OC)cc3)[C@H]2C)c2ccccc21`
Marked response: no
